Numbers sourced from PubChem BioAssay.

Assay: doxorubicin toxicity protection in MRP-1 cells – H69AR cells, CellTiter-Glo, duplicate, MRP-1 activator project, pilot screen (AID 807);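 note: compound pretreatment 18-22 h then 72 h combined with doxorubicin; 0% = doxorubicin alone and 100% = vehicle without doxorubicin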
Conditions: H69AR viability with doxorubicin, CellTiter-Glo luminescence; at 10 µM; hits give high values
Active and inactive are the calls of the source.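 Rule for the calls: active = viability increase at or above a cutoff of the median across tested compounds plus 3 SD (cut at about 8.5% in these data, passing the limit was not always enough); inconclusive = some gains above the cutoff, reason not given; inactive = the rest.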
readout.type: viability increase

- compound: "COc1ccc(Nc2oc(-c3ccccc3Cl)nc2C#N)cc1"
  viability increase: "-8% (inactive)"

[ask] Item Cc1c(C#N)c2ncnc(-c3ccccc3)c2n1-c1ccccc1 : provide viability increase
[reply] -5.64% (inactive)

[ask] Item Cn1c(C(=O)NCCN2CCN(c3ccccc3F)CC2)cc2c(=O)n(C)c3ccccc3c21 : provide viability increase
[reply] -2.38% (inactive)

[ask] Item Cc1ccc(-c2cc(C(F)F)n3ncc(C(=O)N4CCN(c5ccccn5)CC4)c3n2)cc1 : provide viability increase
[reply] -5.43% (inactive)

[ask] Item O=C(CSc1ncnc2nc[nH]c12)c1ccc(Cl)cc1 : provide viability increase
[reply] -1.43% (inactive)

[ask] Item CCCCCn1c(=O)[nH]c2cc(C(=O)NCCN3CCOCC3)ccc2c1=O : provide viability increase
[reply] -0.3% (inactive)

[ask] Item Cc1ccc(C)c(N2CCN(CCCNC(=O)Cn3cc4c(n3)CCCCC4)CC2)c1 : provide viability increase
[reply] -7.67% (inactive)

[ask] Item CCCCOc1ccc(-c2nc(-c3cccnc3)no2)cc1 : provide viability increase
[reply] 4.19% (inactive)

[ask] Item Cc1ccc2oc(-c3ccc(NC(=O)CC(C)C)cc3)nc2c1 : provide viability increase
[reply] -0.39% (inactive)

[ask] Item COC(=O)CN(c1ccc(OC)cc1)S(=O)(=O)c1ccc(OC)c(OC)c1 : provide viability increase
[reply] -1.06% (inactive)

[ask] Item CCOC(=O)CSc1nnc(Cn2c(=O)sc3ccccc32)n1C : provide viability increase
[reply] 1.76% (inactive)

[ask] Item COCCSc1nc2c(c(=O)[nH]c(=O)n2C)n1CCC(C)C : provide viability increase
[reply] -1.88% (inactive)

[ask] Item CC(=O)c1cccc(NC(=O)CCNS(=O)(=O)c2cccc3nsnc23)c1 : provide viability increase
[reply] -2.11% (inactive)
